Data origin, for the record: the supplement of paper PMC6522484

# System: SW480
# ASSAY TEXT: TCF/Wnt firefly luciferase reporter signal relative to plate median (fraction of plate median); higher = higher Wnt reporter signal
# CONDITION LABEL: 5 µM; treatment time 24 h; reporter: 7TFP
Everything with TCF/Wnt firefly luciferase reporter signal lower than 0.9 is Condition not met; everything else, including exactly 0.9, is Condition met.

Evaluate `CN1[C@@H]2CC[C@H]1C[C@@H](OC(=O)[C@H](CO)c1ccccc1)C2` : TCF/Wnt firefly luciferase reporter signal at minimum 0.9?
Condition met

Evaluate CC(C)=CC1C(C(=O)OCc2cccc(Oc3ccccc3)c2)C1(C)C (configuration not stated) : TCF/Wnt firefly luciferase reporter signal at minimum 0.9?
Condition met

Evaluate `CCCCCCCCCCCCOC(=O)[C@H]1OC(=O)[C@H](O)[C@H]1C(=O)OO` : TCF/Wnt firefly luciferase reporter signal at minimum 0.9?
Condition met

Evaluate `C[C@H]1O[C@@H](O[C@H]2[C@@H](O)C[C@H](O[C@H]3[C@@H](O)C[C@H](O[C@H]4CC[C@@]5(C)[C@H](CC[C@@H]6[C@@H]5CC[C@]5(C)[C@@H](C7=CC(=O)OC7)[C@@H](O)C[C@]65O)C4)O[C@@H]3C)O[C@@H]2C)C[C@H](O)[C@@H]1O` : TCF/Wnt firefly luciferase reporter signal at minimum 0.9?
Condition not met

###

# Tested on: DLD1
# ASSAY TEXT: TCF/Wnt firefly luciferase reporter signal relative to plate median (fraction of plate median); higher = higher Wnt reporter signal
# CONDITION LABEL: 5 µM; treatment time 24 h; reporter: 7TFP
Would you kindly list TCF/Wnt firefly luciferase reporter signal for each of these compounds?
Form: value (number only, do not type unit).

The reported DLD1 TCF/Wnt firefly luciferase reporter signal of `Cc1ccc(-c2nc3ccc(C)cn3c2CC(=O)N(C)C)cc1` is 1.13

The reported DLD1 TCF/Wnt firefly luciferase reporter signal of `CC(=O)Oc1ccc(/C=C/c2cc(OC(C)=O)cc(OC(C)=O)c2)cc1` is 1.14

The reported DLD1 TCF/Wnt firefly luciferase reporter signal of CCC(C)C(=O)O[C@@H]1C[C@@]2(C)[C@H](c3ccoc3)OC(=O)CC23OC2(C)O[C@]14[C@]1(C)[C@@H](CC(=O)OC)C5(C)CC1(O)[C@](O)(C5OC(=O)C1(C)OC1C)[C@@H](OC(C)=O)[C@]34O2 (stereo not given in full) is 1.04

The reported DLD1 TCF/Wnt firefly luciferase reporter signal of `COc1cccc2c1cc([N+](=O)[O-])c1c(C(=O)O)cc3c(c12)OCO3` is 1.28

The reported DLD1 TCF/Wnt firefly luciferase reporter signal of `NCCc1c[nH]c2ccccc12` is 0.988

The reported DLD1 TCF/Wnt firefly luciferase reporter signal of `C[C@]12CC[C@H](O)CC1=CC[C@@H]1[C@@H]2CC[C@]2(C)C(=O)CC[C@@H]12` is 1.04

The reported DLD1 TCF/Wnt firefly luciferase reporter signal of `COc1ccc(C(=O)N2CCCC2=O)cc1` is 1.08

The reported DLD1 TCF/Wnt firefly luciferase reporter signal of `COC[C@]12CN(C=O)[C@@H]3[C@@H]4[C@H](OC)[C@H]1[C@@]3([C@@H](OC)C[C@H]2O)[C@@H]1C[C@@]2(O)[C@H](OC(=O)c3ccccc3)[C@@H]1[C@]4(OC(C)=O)[C@@H](O)[C@@H]2OC` is 0.934

The reported DLD1 TCF/Wnt firefly luciferase reporter signal of `CC[C@H]1CN2CCc3cc(OC)c(OC)cc3[C@@H]2C[C@@H]1C[C@H]1NCCc2cc(OC)c(OC)cc21` is 0.615

The reported DLD1 TCF/Wnt firefly luciferase reporter signal of `CC1(C)C(=O)C=C[C@]2(C)[C@H]3CC[C@@]4(C)[C@H](c5ccoc5)OC(=O)[C@H]5O[C@]54[C@]3(C)[C@H](O)C[C@@H]12` is 0.904

The reported DLD1 TCF/Wnt firefly luciferase reporter signal of `N#C[C@H](O[C@@H]1O[C@H](CO[C@@H]2O[C@H](CO)[C@@H](O)[C@H](O)[C@H]2O)[C@@H](O)[C@H](O)[C@H]1O)c1ccccc1` is 0.757

The reported DLD1 TCF/Wnt firefly luciferase reporter signal of `CO[C@]12C[C@@H](COC(=O)c3cncc(Br)c3)CN(C)[C@@H]1Cc1cn(C)c3cccc2c13` is 0.968

The reported DLD1 TCF/Wnt firefly luciferase reporter signal of `C[C@@H]1O[C@@H](O[C@H]2C[C@@H](O)[C@]3(CO)[C@H]4[C@H](O)C[C@]5(C)[C@@H](C6=CC(=O)OC6)CC[C@]5(O)[C@@H]4CC[C@]3(O)C2)[C@H](O)[C@H](O)[C@H]1O` is 0.128

The reported DLD1 TCF/Wnt firefly luciferase reporter signal of CC(=O)C1CCC2C3CCC4C[C@H](O)CCC4(C)C3C[C@H](O)C12C (stereo partly drawn) [DIHYDROXY (3alpha,12alpha)PREGNAN-20-ONE] is 0.993

The reported DLD1 TCF/Wnt firefly luciferase reporter signal of `NC(=O)c1cc([N+](=O)[O-])cc([N+](=O)[O-])c1` is 1.06

The reported DLD1 TCF/Wnt firefly luciferase reporter signal of `CC[C@@H](C(=O)[C@@H](C)[C@@H](O)[C@H](C)[C@@H]1O[C@@H]([C@@H](CC)C(=O)O)CC[C@@H]1C)[C@H]1O[C@]2(C=C[C@@H](O)[C@]3(CC[C@@](C)([C@H]4CC[C@](O)(CC)[C@H](C)O4)O3)O2)[C@H](C)C[C@@H]1C` is 0.783

The reported DLD1 TCF/Wnt firefly luciferase reporter signal of `COC(=O)[C@H]1O[C@@H]2C[C@H]3O[C@@H](n4cnc5c(N)ncnc54)[C@H](OC)[C@H]3O[C@@]2(O)[C@@H](O)[C@@H]1O` is 0.857

The reported DLD1 TCF/Wnt firefly luciferase reporter signal of `COc1ccc(C(=O)O[C@H]2CC[C@@]3(C)[C@@H]4CC[C@H]5[C@]6(O)C[C@H](O)[C@@]7(O)[C@@H](CN8C[C@@H](C)CC[C@H]8[C@@]7(C)O)[C@]6(O)C[C@@]53O[C@]24O)cc1OC` is 1.03

The reported DLD1 TCF/Wnt firefly luciferase reporter signal of NCC(CC(=O)O)c1ccc(Cl)cc1 (stereo not given) is 0.897

The reported DLD1 TCF/Wnt firefly luciferase reporter signal of COc1ccc(C(CN(C)C)C2(O)CCCCC2)cc1 (stereo not given) is 0.924

The reported DLD1 TCF/Wnt firefly luciferase reporter signal of `O=C(O)CC[N+](=O)[O-]` is 1.01

The reported DLD1 TCF/Wnt firefly luciferase reporter signal of `N[C@@H]1C[C@H]1c1ccccc1.N[C@H]1C[C@@H]1c1ccccc1` is 1.05

The reported DLD1 TCF/Wnt firefly luciferase reporter signal of CC(C)(C)NCC(O)c1ccccc1Cl (stereo not given) is 0.949

The reported DLD1 TCF/Wnt firefly luciferase reporter signal of `C[C@@H]1CC[C@@]2(OC1)O[C@H]1[C@@H](O)[C@H]3[C@@H]4CC[C@H]5C[C@@H](O[C@@H]6O[C@H](CO)[C@H](O[C@@H]7O[C@H](CO)[C@@H](O)[C@H](O[C@@H]8OC[C@@H](O)[C@H](O)[C@H]8O)[C@H]7O[C@@H]7O[C@H](CO)[C@H](O)[C@H](O[C@@H]8O[C@H](CO)[C@@H](O)[C@H](O)[C@H]8O)[C@H]7O)[C@H](O)[C@H]6O)[C@H](O)C[C@]5(C)[C@H]4CC[C@]3(C)[C@H]1[C@@H]2C` is 0.986

The reported DLD1 TCF/Wnt firefly luciferase reporter signal of `c1ccc(/N=N/c2ccccc2)cc1` is 1.04

The reported DLD1 TCF/Wnt firefly luciferase reporter signal of `O=C1C=CC(=O)c2c(O)cccc21` is 1.03

The reported DLD1 TCF/Wnt firefly luciferase reporter signal of CC(C)=CCCC1(C)C=Cc2c(O)c3c(c(CC=C(C)C)c2O1)OC12C(=CC4CC1C(C)(C)OC2(C/C=C(/C)C(=O)O)C4O)C3=O (stereo not given) is 0.848

The reported DLD1 TCF/Wnt firefly luciferase reporter signal of `CC(=O)OCC1=C(C(=O)O)N2C(=O)[C@@H](NC(=O)CCC[C@@H](N)C(=O)O)[C@H]2SC1` is 1.18

The reported DLD1 TCF/Wnt firefly luciferase reporter signal of `CC(C)Nc1nc(Cl)nc(NC(C)C)n1` is 0.973

The reported DLD1 TCF/Wnt firefly luciferase reporter signal of `CC[C@@]1(O)C(=O)OCc2c1cc1n(c2=O)Cc2cc3ccccc3nc2-1` is 1.01
